- Procedure details: PK of compound of Formula (Ia) after single subcutaneous dose of solution formulations in beagle dogs
- Format: in vivo
- Experimental conditions: male, beagle, dog, plasma, sc, 12 mg/kg, beagle dogs, SC 12 mg/kg, 400 mg/mL solution W (5.00% ethanol, 1.57% poloxamer 188), 1680 h, Mean n = 3
Quantity measured: concentration at 1680 h (nM)
Please respond with the number in nM and leave the unit unwritten.

[ask] # input compound: CC(C)(C#Cc1ccc(-c2ccc(Cl)c3c(NS(C)(=O)=O)nn(CC(F)(F)F)c23)c([C@H](Cc2cc(F)cc(F)c2)NC(=O)Cn2nc(C(F)(F)F)c3c2C(F)(F)[C@@H]2C[C@H]32)n1)S(C)(=O)=O [compound of Formula (Ia)] ; wanted: its concentration at 1680 h
[reply] 34.9

====

- Procedure details: PK of compound of Formula (Ia) after single intramuscular dose of solution formulations in Wistar Han rats
- Assay type: in vivo
- Experimental conditions: Wistar Han, rat, plasma, intramuscular, 100 mg/kg, Solution K (~500 mg/mL, ethanol); IM 100 mg/kg; Wistar Han rats; mean, n = 4; 168 h; read-out: Plasma concentration, Mean
Quantity measured: concentration at 168 h (nM)
Please respond with the number in nM and leave the unit unwritten.

[ask] # input compound: CC(C)(C#Cc1ccc(-c2ccc(Cl)c3c(NS(C)(=O)=O)nn(CC(F)(F)F)c23)c([C@H](Cc2cc(F)cc(F)c2)NC(=O)Cn2nc(C(F)(F)F)c3c2C(F)(F)[C@@H]2C[C@H]32)n1)S(C)(=O)=O ; wanted: its concentration at 168 h
[reply] 507

====

- Procedure details: PK of compound of Formula (Ia) after single intramuscular dose of solution formulations in Wistar Han rats
- Format: in vivo
- Experimental conditions: male, Wistar Han, rat, plasma, intramuscular, 100 mg/kg, 48.0 h; mean, n = 4 rats; IM 100 mg/kg; solution M, 500 mg/mL; read-out: Plasma concentration
Quantity measured: concentration at 48 h (nM)
Please respond with the number in nM and leave the unit unwritten.

[ask] # input compound: CC(C)(C#Cc1ccc(-c2ccc(Cl)c3c(NS(C)(=O)=O)nn(CC(F)(F)F)c23)c([C@H](Cc2cc(F)cc(F)c2)NC(=O)Cn2nc(C(F)(F)F)c3c2C(F)(F)[C@@H]2C[C@H]32)n1)S(C)(=O)=O ; wanted: its concentration at 48 h
[reply] 622

====

- Procedure details: PK of compound of Formula (Ia) after single subcutaneous dose of solution formulations in beagle dogs
- Assay type: in vivo
- Experimental conditions: male, beagle, dog, plasma, sc, 6 mg/kg, 1344 h; individual dogs; SC 6 mg/kg; solution V, 300 mg/mL
Quantity measured: concentration at 1344 h (nM)
Please respond with the number in nM and leave the unit unwritten.

[ask] # input compound: CC(C)(C#Cc1ccc(-c2ccc(Cl)c3c(NS(C)(=O)=O)nn(CC(F)(F)F)c23)c([C@H](Cc2cc(F)cc(F)c2)NC(=O)Cn2nc(C(F)(F)F)c3c2C(F)(F)[C@@H]2C[C@H]32)n1)S(C)(=O)=O [compound of Formula (Ia)] ; wanted: its concentration at 1344 h
[reply] 26.9

====

- Procedure details: PK of compound of Formula (Ia) after single subcutaneous dose of solution formulations in Wistar Han rats
- Assay type: in vivo
- Experimental conditions: male, Wistar Han, rat, plasma, sc, 50 mg/kg, Wistar Han rats, SC 50 mg/kg, 400 mg/mL solution Z (3.13% poloxamer 188), 336 h, Mean n = 4
Quantity measured: concentration at 336 h
Remember to follow the number with its unit.

[ask] # input molecule: CC(C)(C#Cc1ccc(-c2ccc(Cl)c3c(NS(C)(=O)=O)nn(CC(F)(F)F)c23)c([C@H](Cc2cc(F)cc(F)c2)NC(=O)Cn2nc(C(F)(F)F)c3c2C(F)(F)[C@@H]2C[C@H]32)n1)S(C)(=O)=O [compound of Formula (Ia)] ; wanted: its concentration at 336 h
[reply] 169 nM

====

- Procedure details: PK of compound of Formula (Ia) after single subcutaneous dose of solution formulations in beagle dogs
- Assay type: in vivo
- Experimental conditions: male, beagle, dog, plasma, sc, 12 mg/kg, beagle dogs, SC 12 mg/kg, 400 mg/mL solution W (5.00% ethanol, 1.57% poloxamer 188), 504 h, Mean n = 3
Quantity measured: concentration at 504 h
Remember to follow the number with its unit.

[ask] # input compound: CC(C)(C#Cc1ccc(-c2ccc(Cl)c3c(NS(C)(=O)=O)nn(CC(F)(F)F)c23)c([C@H](Cc2cc(F)cc(F)c2)NC(=O)Cn2nc(C(F)(F)F)c3c2C(F)(F)[C@@H]2C[C@H]32)n1)S(C)(=O)=O ; wanted: its concentration at 504 h
[reply] 121 nM

====

- Procedure details: PK of compound of Formula (Ia) after single subcutaneous dose of solution formulations in Wistar Han rats
- Assay type: in vivo
- Experimental conditions: male, Wistar Han, rat, plasma, sc, 50 mg/kg, Wistar Han rats, SC 50 mg/kg, 400 mg/mL solution Y (water, PEG 300), 504 h, Mean n = 4
Quantity measured: concentration at 504 h (nM)
Please respond with the number in nM and leave the unit unwritten.

[ask] # input compound: CC(C)(C#Cc1ccc(-c2ccc(Cl)c3c(NS(C)(=O)=O)nn(CC(F)(F)F)c23)c([C@H](Cc2cc(F)cc(F)c2)NC(=O)Cn2nc(C(F)(F)F)c3c2C(F)(F)[C@@H]2C[C@H]32)n1)S(C)(=O)=O ; wanted: its concentration at 504 h
[reply] 131

====

- Procedure details: PK of compound of Formula (Ia) after single subcutaneous dose of solution formulations in Wistar Han rats
- Assay type: in vivo
- Experimental conditions: male, Wistar Han, rat, plasma, sc, 50 mg/kg, Wistar Han rats, SC 50 mg/kg, 400 mg/mL solution W (5.00% ethanol, 1.57% poloxamer 188), 48.0 h, animals #1-#3
Quantity measured: concentration at 48 h (nM)
Please respond with the number in nM and leave the unit unwritten.

[ask] # input compound: CC(C)(C#Cc1ccc(-c2ccc(Cl)c3c(NS(C)(=O)=O)nn(CC(F)(F)F)c23)c([C@H](Cc2cc(F)cc(F)c2)NC(=O)Cn2nc(C(F)(F)F)c3c2C(F)(F)[C@@H]2C[C@H]32)n1)S(C)(=O)=O ; wanted: its concentration at 48 h
[reply] 128

====

- Procedure details: PK of compound of Formula (Ia) after single subcutaneous dose of solution formulations in Wistar Han rats
- Format: in vivo
- Experimental conditions: male, Wistar Han, rat, plasma, sc, 50 mg/kg, 3.00 h; mean, n = 3 rats; SC 50 mg/kg; solution V, 300 mg/mL
Quantity measured: concentration at 3 h (nM)
Please respond with the number in nM and leave the unit unwritten.

[ask] # input compound: CC(C)(C#Cc1ccc(-c2ccc(Cl)c3c(NS(C)(=O)=O)nn(CC(F)(F)F)c23)c([C@H](Cc2cc(F)cc(F)c2)NC(=O)Cn2nc(C(F)(F)F)c3c2C(F)(F)[C@@H]2C[C@H]32)n1)S(C)(=O)=O ; wanted: its concentration at 3 h
[reply] 116

====

- Procedure details: PK of compound of Formula (Ia) after single subcutaneous dose of solution formulations in beagle dogs
- Type: in vivo
- Experimental conditions: male, beagle, dog, plasma, sc, 12 mg/kg, beagle dogs, SC 12 mg/kg, 400 mg/mL solution AA (6.25% poloxamer 188), 72.0 h, Mean n = 3
Quantity measured: concentration at 72 h (nM)
Please respond with the number in nM and leave the unit unwritten.

[ask] # input compound: CC(C)(C#Cc1ccc(-c2ccc(Cl)c3c(NS(C)(=O)=O)nn(CC(F)(F)F)c23)c([C@H](Cc2cc(F)cc(F)c2)NC(=O)Cn2nc(C(F)(F)F)c3c2C(F)(F)[C@@H]2C[C@H]32)n1)S(C)(=O)=O [compound of Formula (Ia)] ; wanted: its concentration at 72 h
[reply] 135

====

- Procedure details: PK of compound of Formula (Ia) after single subcutaneous dose of solution formulations in Wistar Han rats
- Format: in vivo
- Experimental conditions: male, Wistar Han, rat, plasma, sc, 50 mg/kg, 72.0 h; individual rats; SC 50 mg/kg; solution V, 300 mg/mL
Quantity measured: concentration at 72 h (nM)
Please respond with the number in nM and leave the unit unwritten.

[ask] # input molecule: CC(C)(C#Cc1ccc(-c2ccc(Cl)c3c(NS(C)(=O)=O)nn(CC(F)(F)F)c23)c([C@H](Cc2cc(F)cc(F)c2)NC(=O)Cn2nc(C(F)(F)F)c3c2C(F)(F)[C@@H]2C[C@H]32)n1)S(C)(=O)=O ; wanted: its concentration at 72 h
[reply] 187
